# SYSTEM TESTED: IRAK4 (Homo sapiens, UniProt Q9NWZ3)
# Construct: endogenous in cells; host or cells: OCI-LY10
# Sequence (Q9NWZ3 whole entry): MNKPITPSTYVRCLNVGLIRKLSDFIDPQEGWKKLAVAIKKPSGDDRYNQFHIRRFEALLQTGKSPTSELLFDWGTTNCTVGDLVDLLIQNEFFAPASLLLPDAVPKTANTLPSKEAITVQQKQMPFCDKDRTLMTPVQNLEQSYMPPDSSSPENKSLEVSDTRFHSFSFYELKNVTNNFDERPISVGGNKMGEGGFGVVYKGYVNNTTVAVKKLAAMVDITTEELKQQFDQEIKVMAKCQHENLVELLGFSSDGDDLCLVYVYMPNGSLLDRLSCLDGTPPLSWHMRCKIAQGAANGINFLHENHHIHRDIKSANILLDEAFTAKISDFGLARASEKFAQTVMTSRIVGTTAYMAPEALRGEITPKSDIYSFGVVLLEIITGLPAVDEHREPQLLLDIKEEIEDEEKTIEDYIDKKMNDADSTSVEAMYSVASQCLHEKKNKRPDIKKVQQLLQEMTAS
# PROTOCOL TEXT: IRAK4 MSD Degradation in OCI-LY10
# Format: cell-based
# CONDITION INFO: OCI-LY10 cells, 4 hrs incubation, read-out: IRAK4 degradation in OCI-LY10 at 4 hrs: DC50
QUANTITY NAME: DC50

Cn1c(=O)n(C2CCC(=O)NC2=O)c2ccc(C#CCCCNC[C@H]3CC[C@H](n4cc5cc(NC(=O)c6cccc(C(F)(F)F)n6)c(C(C)(C)O)cc5n4)CC3)cc21 (stereo partly shown) :: < 50 nM
Cn1c(=O)n(C2CCC(=O)NC2=O)c2cccc(C[C@H]3C[C@]4(CC[C@@H](N(C)C[C@H]5CC[C@H](n6cc7cc(NC(=O)c8cccc(C(F)(F)F)n8)c(C(F)F)cc7n6)CC5)CC4)C3)c21 (stereo partly shown) :: 50 to 100 nM
COc1cc2nn([C@H]3CC[C@H](CN4CCC(CCNc5cccc6c5n(C)c(=O)n6C5CCC(=O)NC5=O)CC4)CC3)cc2cc1NC(=O)c1ccc(F)c(C)n1 (stereo partly shown) :: < 50 nM
COc1cc2nn([C@H]3CC[C@H](CN4CCC(CCCc5ccc6c(c5)n(C)c(=O)n6C5CCC(=O)NC5=O)CC4)CC3)cc2cc1NC(=O)c1cccc(C(F)(F)F)n1 (stereo partly shown) :: 50 to 100 nM

Q: Quick check: DC50 of Cn1c(=O)n(C2CCC(=O)NC2=O)c2cccc(CCCC3CCN(C[C@H]4CC[C@H](n5cc6cc(NC(=O)c7cccc(C(F)(F)F)n7)c(N7CCOCC7)cc6n5)CC4)CC3)c21 (stereo partly shown) ?
A: 50 to 100 nM

Q: Quick check: DC50 of Cn1c(=O)n(C2CCC(=O)NC2=O)c2cccc(CC3CCN(C[C@H]4CC[C@H](n5cc6cc(NC(=O)c7cccc(C(F)(F)F)n7)c(C(C)(C)O)cc6n5)CC4)CC3)c21 (stereo partly shown) ?
A: < 50 nM

Q: Quick check: DC50 of Cn1c(=O)n(C2CCC(=O)NC2=O)c2ccc(N3CCN(C[C@H]4CC[C@H](n5cc6cc(NC(=O)c7cccc(C(F)(F)F)n7)c(C(F)F)cc6n5)CC4)CC3)cc21 (stereo partly shown) ?
A: < 50 nM

Q: Quick check: DC50 of COc1cc2nn([C@H]3CC[C@H](CN(C)C4CCN(c5cccc6c5n(C)c(=O)n6C5CCC(=O)NC5=O)CC4)CC3)cc2cc1NC(=O)c1ccc(F)c(C)n1 (stereo partly shown) ?
A: < 50 nM

Q: Quick check: DC50 of Cn1c(=O)n(C2CCC(=O)NC2=O)c2cccc(C[C@H]3CC[C@H](N(C)C[C@H]4CC[C@H](n5cc6cc(NC(=O)c7cccc(C(F)(F)F)n7)c(C(F)F)cc6n5)CC4)CC3)c21 (stereo partly shown) ?
A: 50 to 100 nM

Q: Quick check: DC50 of Cn1c(=O)n(C2CCC(=O)NC2=O)c2cccc([C@H]3CC[C@@H](N(C)C[C@H]4CC[C@H](n5cc6cc(NC(=O)c7cccc(C(F)(F)F)n7)c(C(C)(C)O)cc6n5)CC4)CC3)c21 (single isomer, unassigned) ?
A: < 50 nM

These entries and their values trace back to patent US12545659B2.
